# measurement-protocol: Primary qHTS for inhibitors of nuclear receptor binding SET domain protein 2 (NSD2) in an RCH-ACV wild type WT cells (2C) (AID 1645877); also: potency is read from the fitted curve at half-maximal effect; nearly all actives have a fitted effect of over 70% in size
# details: RCH-ACV NSD2 WT (2C) viability, CellTiter-Glo, 72 h; series mostly up to 44.9 µM
Records with an inconclusive call do not appear. Activity calls are given as the source filed them. Calls follow the shape of the dose curve; as a rule, active = well fitted inhibition curve with a large enough effect; inconclusive = small, poorly fitted or top-dose-only effect; inactive = no such curve, though single readings can be large or run the other way.
Quick list: Potency per entry.

compound | Potency
C[C@@H]1C[C@H]2[C@@H]3CCC4=CC(=O)C=C[C@]4(C)[C@@]3(F)[C@@H](O)C[C@]2(C)[C@@]1(O)C(=O)COP(=O)(O)O | 0.0916 µM (active)
C=C1CC[C@@H]2[C@](C)(CO)[C@H](O)CC[C@@]2(C)[C@@H]1C/C=C1/C(=O)OC[C@H]1O | 7.42 µM (active)
C[C@H]1C[C@H]2[C@@H]3CCC4=CC(=O)C=C[C@]4(C)[C@@]3(F)[C@@H](O)C[C@]2(C)[C@@]1(O)C(=O)COP(=O)(O)O | 0.0578 µM (active)
CC(=O)O[C@H]1[C@H](Oc2ccccc2COC(=O)C2(O)C=CCCC2=O)O[C@H](CO)[C@@H](O)[C@@H]1O (stereo partly drawn) | 7.09 µM (active)
C[C@@H]1CCN(C(=O)CC#N)C[C@@H]1N(C)c1ncnc2[nH]ccc12 | 23.5 µM (active)
NCCOCCOCCNC(=O)Cc1ccc(Nc2nc(NCc3ccc(F)cc3)nc(NCC3CCCCC3)n2)cc1 | 16.3 µM (active)
CC(C)C(=O)OCC(=O)[C@@]12O[C@H](C3CCCCC3)O[C@@H]1C[C@H]1[C@@H]3CCC4=CC(=O)C=C[C@]4(C)[C@H]3[C@@H](O)C[C@@]12C | 0.0209 µM (active)
Nc1ccn([C@@H]2C(F)=C(CO)[C@@H](O)[C@H]2O)c(=O)n1 | 0.332 µM (active)

====

# measurement-protocol: Cell Viability - LYMP2-005 (AID 967);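 also: cells exposed to compound for 24 h at 37 °C; plate controls were DMSO only for no effect and 92 µM tetraoctylammonium bromide control for full effect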
# details: LYMP2-005 lymphoblastoid cell viability; series mostly up to 92.2 µM
# Text: NIH Chemical Genomics Center [NCGC] NIH Molecular Libraries Screening Centers Network [MLSCN] National Institutes of Environmental Health Sciences [NIEHS] National Toxicology Program [NTP] We have developed a 1536-well cell-based assay for quantitative high throughput screening (qHTS) against a number of cell lines to determine in vitro cytotoxicity of small molecules. […] 8. Detection; Luminescence; Viewlux plate reader […]
Results filed as inconclusive are left out. The source made the active and inactive calls. The call rests on the fitted dose curve; in most records, active means well fitted cell-killing curve with a large enough effect; inconclusive means small, poorly fitted or top-dose-only effect, or effect the other way; inactive means no such curve, though single readings can be large or run the other way.
quantity-name: outcome

compound-structure-string | test-value
IC(I)I | inactive
CCOC(C)=O | inactive
CCCCCCCC(=O)O | inactive
O=C(O)CCC(=O)C(=O)O | inactive
Cc1ccccc1 | inactive
O=S(=O)(O)O | inactive
CC1=C2[C@@H]([C@H](C)CC[C@H]2/C=C(\C)C(=O)O)[C@H](O)C1 | inactive

====

# measurement-protocol: Primary qHTS for inhibitors of nuclear receptor binding SET domain protein 2 (NSD2) in an isogenic RCH-ACV NSD2 p.E1099K mutant (9B) (AID 1645876); also: nearly all actives have a fitted effect of over 70% in size; as to activity change, negative = viability loss: % is scaled to controls: 0 for no effect and ±100 for the full control effect
# details: RCH-ACV (leukaemia line) NSD2 E1099K (9B) viability, CellTiter-Glo, 72 h; series mostly up to 44.9 µM
Records with an inconclusive call do not appear. Active and inactive are the calls of the source. Calls follow the shape of the dose curve; as a rule, active = well fitted inhibition curve with a large enough effect; inconclusive = small, poorly fitted or top-dose-only effect; inactive = flat fitted curve, though single readings scatter.
quantity-name: activity change, negative = viability loss

molecule | test-value
C[C@@H]1O[C@@H](O[C@H]2[C@H](O[C@H]3[C@H](O[C@H]4CC[C@@]5(C)C(CC[C@]6(C)C5CC=C5[C@@H]7CC(C)(C(=O)O)C[C@@H](O)[C@]7(C)CC[C@]56C)[C@@]4(C)CO)O[C@H](C(=O)O)[C@@H](O)[C@@H]3O)O[C@H](CO)[C@H](O)[C@@H]2O)[C@H](O)[C@H](O)[C@H]1O (stereo not given in full) | -4.48% [at 9.23 µM] (inactive)
COc1c2c(c(C)c3c1C(=O)OC3)OC1(C)CC(O)C3(O)C(C)(C)OC(=O)CCC3(C)C1C2 (stereo not given) | inactive
CC1CCC23COC(=O)C2=CC(O)CC3C1(C)CCC1=CC(=O)OC1O (stereo not given) | inactive
CC(=O)c1c(O)cc2c(c1C)C(=O)CC(O)C2 (stereo not given) | inactive
COC1(CC(C)C)NC(=O)C(O)(Cc2ccccc2)NC1=O (stereo not given) | inactive

====

# measurement-protocol: P-glycoprotein substrates identified in KB-3-1 adenocarcinoma cell line, qHTS therapeutic library screen (AID 1346986); also: nearly all actives have a fitted effect of over 60% in size
# details: KB-3-1 parental cells viability, CellTiter-Glo, 72 h; series mostly up to 44.5 µM
Inconclusive results are not listed. The source made the active and inactive calls. The call rests on the fitted dose curve; in most records, active means well fitted inhibition curve with a large enough effect; inconclusive means small, poorly fitted or top-dose-only effect; inactive means no such curve, though single readings can be large or run the other way.
quantity-name: outcome

compound | quantity-name | test-value
CC(=O)OC[C@]1(O)[C@H]2[C@H](OC(=O)CC(C)C)OC=C(CO[C@@H]3O[C@H](CO)[C@@H](O)[C@H](O)[C@H]3O)[C@H]2C[C@@H]1O | outcome | inactive
N#CC1C(=O)Nc2scc(-c3ccc(-c4ccccc4O)cc3)c2C1=O (configuration not stated) | outcome | inactive
C[C@@H]1O[C@@H](O[C@H]2[C@H](OC(C#N)c3ccc(O)cc3)O[C@H](CO)[C@@H](O)[C@@H]2O)[C@H](O)[C@H](O)[C@H]1O (some centres not stated) | outcome | inactive
CC(C)=CCC[C@](C)(O[C@@H]1O[C@H](CO[C@@H]2OC[C@@H](O)[C@H](O)[C@H]2O)[C@@H](O)[C@H](O)[C@H]1O)[C@H]1CC[C@]2(C)[C@@H]1[C@H](O)C[C@@H]1[C@@]3(C)CC[C@H](O[C@@H]4O[C@H](CO)[C@@H](O)[C@H](O)[C@H]4O[C@@H]4O[C@H](CO)[C@@H](O)[C@H](O)[C@H]4O)C(C)(C)[C@@H]3CC[C@]12C | outcome | inactive
C[C@@H]1O[C@@H](O[C@H]2[C@H](OC(=O)[C@]34CCC(C)(C)C[C@H]3C3=CCC5[C@@]6(C)CC[C@H](O[C@@H]7O[C@H](CO[C@@H]8OC[C@H](O)[C@H](O)[C@H]8O)[C@@H](O)[C@H](O)[C@H]7O)C(C)(C)C6CC[C@@]5(C)[C@]3(C)C[C@H]4O)OC[C@@H](O)[C@@H]2O)[C@H](O)[C@H](O)[C@H]1O[C@@H]1OC[C@H](O)[C@H](O[C@@H]2OC[C@@H](O)[C@H](O)[C@H]2O)[C@H]1O (some centres not stated) | outcome | inactive [at 9.29 µM]
C[C@@H]1C[C@H]2[C@@H]3CCC4=CC(=O)C=C[C@]4(C)[C@@]3(F)[C@@H](O)C[C@]2(C)[C@@]1(O)C(=O)COP(=O)(O)O | outcome | inactive
C=C1CC23CC1(O)CCC2C1=CC2OC(=O)C(C)(C2O)C1C3C(=O)O (configuration not stated) | outcome | inactive
COc1ccc2c(c1O)OC[C@H]1c3ccc(O)cc3O[C@@H]21 | outcome | inactive
CC1(C)CCC2(C(=O)OC3OC(COC4OC(CO)C(O)C(O)C4O)C(O)C(O)C3O)CCC3(C)C(=CCC4C5(C)CCC(O)C(C)(C(=O)O)C5CCC43C)C2C1O (configuration not stated) | outcome | inactive [at 9.29 µM]
CC1(C)C(=O)N2c3ccccc3[C@]3(CC(n4cnc5ccccc5c4=O)C(=O)O3)[C@H]2N1O (some centres not stated) | outcome | inactive
C[C@H]1CN(C[C@H](Cc2ccccc2)C(=O)NCC(=O)O)CC[C@@]1(C)c1cccc(O)c1 | outcome | inactive
C=C(C(=O)OC)C1CCC2(C)C(O[C@@H]3O[C@H](CO)[C@@H](O)[C@H](O)[C@H]3O)CC(=O)C(C)C2C1O (some centres not stated) | outcome | inactive

====

# Tested on: CP256
# measurement-protocol: qHTS profiling for inhibitors of Plasmodium falciparum proliferation (AID 504749); also: nearly all actives have a fitted effect of over 60% in size
# details: P. falciparum in erythrocytes, SYBR Green DNA, 72 h; series mostly up to 28.7 µM
# Experimental: NIH National Institute of Allergy and Infectious Diseases [NIAID] NIH Chemical Genomics Center [NCGC] […] Because mature erythrocytes lack DNA, only Plasmodium-derived DNA is detected. NCGC Assay Protocol Summary: The SYBR Green viability assay was adapted from a method described previously (Plouffe et al., 2008). […] The following morning, fluorescence intensity at 485(14) nm excitation and 535(25) nm emission wavelengths was measured on an EnVision (Perkin Elmer) plate reader. […]
Inconclusive results are not listed. Calls of active or inactive are those of the source. The call rests on the fitted dose curve; in most records, active means well fitted inhibition curve with a large enough effect; inconclusive means small, poorly fitted or top-dose-only effect; inactive means flat fitted curve, though single readings scatter.
Classes used: active, inactive

compound | class
COC(=O)[C@H]1[C@H]2CC3c4[nH]c5ccccc5c4CCN3C[C@@H]2CC[C@@H]1O (stereo partly drawn) | inactive
CC(=O)Oc1cc(C)c(OC(C)=O)c2ccccc12 | active
CCOc1ccc2c(c1)C(C)=CC(C)(C)N2 | inactive
COCC(=O)Nc1cc(Sc2ccccc2)ccc1N=C(NC(=O)OC)NC(=O)OC | inactive
O=C1CSC2(CCN(CCCN3c4ccccc4Sc4ccc(Cl)cc43)CC2)N1 | inactive
CCCCCCCC(=O)O | inactive
CO[C@H](C(=O)[C@@H](O)[C@@H](C)O)C1Cc2cc3cc(O[C@H]4C[C@@H](O[C@H]5C[C@@H](O)[C@H](O)[C@@H](C)O5)[C@@H](O)[C@@H](C)O4)c(C)c(O)c3c(O)c2C(=O)[C@H]1O[C@H]1C[C@@H](O[C@H]2C[C@@H](O[C@H]3C[C@](C)(O)[C@H](O)[C@@H](C)O3)[C@H](O)[C@@H](C)O2)[C@H](O)[C@@H](C)O1 (stereo partly drawn) | active
C[C@H]1C[C@H]2[C@@H]3CCC4=CC(=O)C=C[C@]4(C)[C@@]3(F)[C@@H](O)C[C@]2(C)[C@@]1(O)C(=O)CO | inactive

Values from PubChem BioAssay (NCATS)
